target desc: Mannose-6-phosphate isomerase (Homo sapiens)
test description: MPI inhibition at elevated mannose 6-phosphate – biochemical, fluorescence intensity, high mannose 6-phosphate, primary screen (AID 1220)
experimental conditions: recombinant PMI enzyme, coupled fluorescence intensity; at 20 µM; hits give high values
Out of some 190,000 compounds screened, about 1,300 (0.68%) were called active. Shown is part of a subset that was picked to be rich in actives.
inhibition reference
metric name: inhibition (%)

[[record]]
compound = "O=C1C2C3C=CC(CC3)C2C(=O)N1/N=C/c1c(O)ccc2ccccc12 (stereo not drawn)"
obs_value = 70.3

[[record]]
compound = "CCOc1ccc(C(C)=O)cc1CSc1nnc(-c2cccs2)n1CC1CCCO1 (stereo not drawn)"
obs_value = 10.7

[[record]]
compound = "Oc1ccc(C=Nc2cccc3ncccc23)c(O)c1"
obs_value = 38.7

[[record]]
compound = "CCOC(=O)c1c(C)[nH]c(C)c1C(=O)COC(=O)c1ccc(S(=O)(=O)N(CC)CC)cc1"
obs_value = 4.4

[[record]]
compound = "O=[N+]([O-])c1ccc(O)c(C=Nc2ccc3nc(-c4ccccc4)[nH]c3c2)c1"
obs_value = 8.2

[[record]]
compound = "O=[N+]([O-])c1ccc(O)c(C=Nc2ccc3c(c2)OCCO3)c1"
obs_value = 52.8

[[record]]
compound = "COc1ccc(NC(=S)Nc2ccccc2)cn1"
obs_value = 8.5

[[record]]
compound = "O=[N+]([O-])c1ccc(O)c(/C=N/Nc2ccccn2)c1"
obs_value = -20.1

[[record]]
compound = "O=[N+]([O-])c1ccc(O)c(C=Nc2cccc3ncccc23)c1"
obs_value = 52.5

[[record]]
compound = "O=C(N/N=C/c1cc([N+](=O)[O-])ccc1O)c1ccc2c(c1)OCCO2"
obs_value = -16.7

[[record]]
compound = "Cc1ccc2nc(-c3ccccc3)c(CN3CCOCC3)n2c1"
obs_value = -1

[[record]]
compound = "O=C(Nc1ccc2oc(Cc3ccc(Cl)cc3)nc2c1)c1cccnc1"
obs_value = 7.7

[[record]]
compound = "Cn1ncc(N=Cc2ccccc2O)c1C(=O)Nc1ccccc1"
obs_value = 16.9

[[record]]
compound = "O=C1C2C3C=CC(CC3)C2C(=O)N1/N=C/c1ccc(O)c(O)c1 (stereo not drawn)"
obs_value = -11.1

[[record]]
compound = "O=C1C2C3C=CC(CC3)C2C(=O)N1/N=C/c1ccccc1O (stereo not drawn)"
obs_value = -0.9

[[record]]
compound = "Oc1ccc2ccccc2c1/C=N/Nc1ccccc1"
obs_value = -35.6

[[record]]
compound = "Oc1c(Br)cc(Br)cc1C=Nc1ccc2c(c1)OCO2"
obs_value = 48.6

[[record]]
compound = "O=C(O)[C@H]1CCCC[C@H]1C(=O)Nc1cc([N+](=O)[O-])ccc1F"
obs_value = -7.1

[[record]]
compound = "Cc1cccc(OCC(=O)O/N=C(\\N)Cc2cccs2)c1"
obs_value = 0

[[record]]
compound = "Cn1ncc(N=Cc2ccccc2)c1C(=O)Nc1cccc(Cl)c1"
obs_value = 14.7

[[record]]
compound = "COc1ccc(NC(=S)Nc2ccc(OC(F)F)cc2)cn1"
obs_value = 58.2

[[record]]
compound = "Oc1c(Br)cc(Br)cc1C=Nc1ccc2c(c1)OCCO2"
obs_value = 59.7

[[record]]
compound = "O=S(=O)(/N=C/c1c(O)ccc2ccccc12)c1cccs1"
obs_value = 27.7

